Values from ChEMBL document CHEMBL6109050

- Test system: MDA-MB-231
- Assay Remarks: Cytotoxicity against human MDA-MB-231 cells incubated for 72 hrs by MTT assay
- Assay type: functional, cell-based
- Particulars: MDA-MB-231, 72 h
Experimental Endpoint: pIC50
The value called pIC50 is obtained by taking minus log10 of the concentration in mol/L.

[
  {
    "Chem Smiles": "COC(=O)c1cc(-c2ccc(NC(=O)c3nc(NC(=O)CO[C@H]4CCN5C(=O)c6cc(OC)c(OC)cc6N=C[C@H]45)cn3C)cc2)cn1C",
    "pIC50": 7.44
  }
]

Shift focus to the following entry.
Could you tell me which pIC50 is on file for COc1cc2c(cc1OC)C(=O)N1CC[C@H](OCCCO[C@H]3CCN4C(=O)c5cc(OC)c(OC)cc5N=C[C@H]34)[C@H]1C=N2 ? 6.63
